# Test system: T47D
# TEST_DETAILS: NCI tumour cell line growth inhibition, 48 h
Calls of active or inactive are those of the source. Cut-off read from the data, not from the text of the source: active = GI50 up to about 1.1 µM and inactive = higher.
Recorded GI50 for the following molecules

Given the entry CCCCCCCCOP(=O)(O)OP(=O)(O)OCC1OC(n2ccc(N)nc2=O)C(O)C1O (centres undefined) , report its measured GI50.
> 100 µM (inactive)

What does the data say about its GI50? Entry: COC(=O)CCC(C)[C@H]1CCC2C3C(C[C@H](OC(C)=O)[C@@]21C)[C@@]1(C)CCC2(C[C@H]1C[C@H]3OC(C)=O)OOC1(CCC(C(C)(C)C)CC1)OO2 (some centres undefined)
5.71 µM (inactive)

Can you look up the measured GI50 of CCC(C)C(C(=O)N/N=C1/SCC(=O)N1C)C(=O)N/N=C1/SCC(=O)N1C (centres undefined) for me?
> 100 µM (inactive)

# ---- query molecule ----
Name the reported GI50 value associated with the molecule CC1=NCCN=C(C)C1/N=N/c1ccc2[nH]c(C)nc2c1
12.7 µM (inactive)

---

# System: SF-268
# TEST_DETAILS: NCI tumour cell line growth inhibition, 48 h
Calls of active or inactive are those of the source. No stated cut-off is given here; in the data, active = GI50 up to about 1.1 µM and inactive = higher.
Outcomes you can answer with include only these: TRUE for active, FALSE for inactive

# outcome recorded in this test, key = COC(=O)[C@]12CSC[C@H]1C[C@H](c1ccc(N(C)C)cc1)N2
FALSE

Further cases:
Would you mind telling me which call this test gave CCOC(=O)CCC(NC(=O)c1ccc(NCc2ccc3nc(OC)c(OC)nc3c2)c2ccccc12)C(=O)OCC (stereo not given) ?
FALSE

Can you look up the reported call for CC(C)(C)C1CCC2c3c([nH]c4ccccc34)C3C(=O)N(c4ccccc4)C(=O)C3C2C1 (stereo not given) for me?
FALSE

What did this assay record as the result for N#CC(CC(=O)O)=C(c1ccccc1)c1ccccc1 ?
FALSE

What is the recorded call for this molecule in the test? COC(=O)c1c2c(cc3c1CC1(Cc4ccc(C(C)=O)cc4C1)C3)CCC2 (stereo not given)
FALSE

Could you kindly confirm the outcome this assay logged for COc1ccccc1N1C(=O)CC(=O)N(C(=O)CCCCCCCCC(=O)N2C(=O)CC(=O)N(c3ccccc3OC)C2=S)C1=S ?
FALSE

Could you kindly confirm the outcome this assay logged for CCOC(=O)CNC1=NNS(=O)(=O)c2ccccc21 ?
FALSE

Outcome logged for C=C1C(=O)O[C@H]2C/C(C)=C/CC[C@@]3(C)O[C@](C)(CC[C@@H]3I)[C@@H](I)C[C@@H]12 in this assay:
FALSE

Called result for COC(=O)[C@@H](O)[C@](O)(CCC(C)C)C(=O)O[C@@H]1C(OC)=C[C@]23CCCN2CCc2cc4c(cc2[C@H]13)OCO4
TRUE

Give the logged outcome of this assay for the following molecule: Cc1coc2c1[C@@H](O)[C@@]1(C)[C@H](CCC[C@@H]1C)C2
FALSE

How was O=C1C(Cl)=C(Cl)C(=O)N1c1ccccc1Cl classified in this test?
FALSE

---

# System: U-251
# TEST_DETAILS: NCI tumour cell line growth inhibition, 48 h
The source made the active and inactive calls. Cut-off read from the data, not from the text of the source: active = GI50 up to about 1.1 µM and inactive = higher.
# GI50 per entry

Consider the worked cases shown below.
Which value of GI50 has been reported for O=c1c2sc(=S)n(-c3ccc(F)cc3)c2ncn1/N=C/c1ccc(F)cc1F in the records?
23.4 µM (inactive)

Bench note: what GI50 did COC(=O)c1c2c(cc3c1CC1(Cc4ccc(C(C)=O)cc4C1)C3)CCC2 (stereo unspecified) show?
50.7 µM (inactive)

# GI50 lookup, item CCOc1cccc(/C=N/N=C2\C(=O)Nc3c(Cl)cc(Cl)cc32)c1O
46.5 µM (inactive)

Would you mind telling me what GI50 value was observed for COc1ccc(/C=C2\CNC/C(=C\c3ccc(OC)cc3)C2=O)cc1 ?
17.6 µM (inactive)

State the recorded GI50 for this entry: Cn1c(S)nnc1-c1csc(-c2ccc(Cl)cc2)n1
> 10 µM (inactive)

Further cases:
State the recorded GI50 for this entry: C1=CC(=[N+]2N=C(c3ccccc3)CC2c2ccccc2)C=CC1=C1SC(c2ccccc2)(c2ccccc2)c2ccccc21.[O-][Cl+3]([O-])([O-])[O-] (stereo unspecified)
> 100 µM (inactive)

Entry CCOP(=O)(OCC)C(c1ccc(F)cc1)N(C(=O)NC(F)(F)F)c1cccc(C(F)(F)F)c1 (stereo unspecified) : reported GI50 = ?
> 100 µM (inactive)
